- Target of assay: monkey chymase (Macaca fascicularis)
- Construct: chymase was extracted from homogenized monkey cheek pouch and stomach; from tissue; host or cells: monkey cheek pouch and stomach
- Assay comment: Monkey chymase inhibitory activity (in vitro, angiotensin I substrate)
- Assay type: biochemical
- Experimental parameters: chymase purified from monkey cheek pouch and stomach; substrate angiotensin I; 37° C.; read-out: Monkey Chymase Inhibition (IC50:nM)
- Procedure: The inhibitory activities of the compounds on monkey chymase and human chymase were tested in vitro. The test compounds are as shown by Compound Nos. in Tables 13 and 14. Preparation of Monkey Chymase Chymase was purified from monkey cheek pouch and stomach in the following manner. […] The amount of L-His-L-Leu was measured as angiotensin II produced by the enzymatic reaction. […]
Quantity: IC50 (nM)

I = Cc1cccc(CC(NC(=O)[C@@H]2CCCN2C(=O)[C@@H](NC(=O)c2c(C)noc2C)C(C)C)C(=O)C(F)(F)F)c1 (stereo partly drawn) [I-A-40]
II = Cc1noc(C)c1C(=O)N[C@H](C(=O)N1CCC[C@H]1C(=O)N[C@@H](Cc1csc2ccccc12)C(=O)C(F)(F)F)C(C)C [I-A-1]
III = Cc1noc(C)c1C(=O)N[C@@H](Cc1ccccc1)C(=O)N1CCC[C@H]1C(=O)NC(Cc1ccccc1)C(=O)C(F)(F)F (stereo partly drawn) [I-A-14]
Which order do these fall in by IC50? Give them lowest to highest. Response format: the labels, sorted as the prompt asks.
II, III, I
(II: 3.8 nM, III: 59 nM, I: 120 nM)

###

- Target of assay: monkey chymase (Macaca fascicularis, UniProt P56435)
- Construct: chymase was extracted from homogenized monkey cheek pouch and stomach; from tissue; host or cells: monkey cheek pouch and stomach
- Sequence (P56435 22-247): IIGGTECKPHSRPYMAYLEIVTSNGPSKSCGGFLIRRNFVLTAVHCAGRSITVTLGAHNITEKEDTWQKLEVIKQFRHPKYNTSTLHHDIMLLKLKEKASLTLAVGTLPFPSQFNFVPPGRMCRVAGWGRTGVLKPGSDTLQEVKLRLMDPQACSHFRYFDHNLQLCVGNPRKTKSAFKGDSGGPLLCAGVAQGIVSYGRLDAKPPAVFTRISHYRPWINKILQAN
- Assay comment: Monkey chymase inhibitory activity (in vitro, angiotensin I substrate)
- Format: biochemical
- Experimental parameters: chymase purified from monkey cheek pouch and stomach; substrate angiotensin I; 37° C.; read-out: Monkey Chymase Inhibition (IC50:nM)
Quantity: IC50 (nM)

compound="Cc1noc(C)c1C(=O)N[C@@H](Cc1ccccc1)C(=O)N1CCC[C@H]1C(=O)NC(Cc1csc2ccccc12)C(=O)C(F)(F)F (stereo partly shown)" quantity=IC50 recorded_value=48

I = O=C(O)Cn1c(=O)ccn(CC(=O)N[C@@H](CC2CCCCC2)C(=O)N2CCC[C@H]2C(=O)NC(Cc2ccccc2)C(=O)C(F)(F)F)c1=O (stereo partly shown)
II = CC[C@@H](C)[C@H](NC(=O)c1c(C)noc1C)C(=O)N1CCC[C@H]1C(=O)N[C@@H](Cc1csc2ccccc12)C(=O)C(F)(F)F
Sorting by IC50 in descending order, would I or II appear first? Reply briefly: the label of your chosen item.
I
(I: 150 nM, II: 12 nM)

###

- Target of assay: monkey chymase (Macaca fascicularis, UniProt P56435)
- Construct: chymase was extracted from homogenized monkey cheek pouch and stomach; from tissue; host or cells: monkey cheek pouch and stomach
- Sequence (P56435 22-247): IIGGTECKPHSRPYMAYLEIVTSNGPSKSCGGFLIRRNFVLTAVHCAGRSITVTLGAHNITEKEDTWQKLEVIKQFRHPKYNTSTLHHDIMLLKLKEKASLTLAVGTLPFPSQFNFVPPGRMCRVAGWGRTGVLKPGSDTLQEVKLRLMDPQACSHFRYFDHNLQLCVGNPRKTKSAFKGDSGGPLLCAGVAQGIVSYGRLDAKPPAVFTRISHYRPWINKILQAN
- Assay comment: Monkey chymase inhibitory activity (in vitro, angiotensin I substrate)
- Format: biochemical
- Experimental parameters: chymase purified from monkey cheek pouch and stomach; substrate angiotensin I; 37° C.; read-out: Monkey Chymase Inhibition (IC50:nM)
Quantity: IC50 (nM)

compound="Cc1noc(C)c1C(=O)N[C@H](C(=O)N1CCC[C@H]1C(=O)NC(Cc1csc2ccccc12)C(=O)C(F)(F)F)C1CCCCC1 (stereo partly drawn)" unit_tag=nM recorded_value=33
compound="CC(C)[C@H](NC(=O)c1ccc2c(c1)no[n+]2[O-])C(=O)N1CCC[C@H]1C(=O)NC(Cc1csc2ccccc12)C(=O)C(F)(F)F (stereo partly drawn)" unit_tag=nM recorded_value=31

A = CC(C)[C@H](NC(=O)c1snnc1-c1ccccc1)C(=O)N1CCC[C@H]1C(=O)NC(Cc1csc2ccccc12)C(=O)C(F)(F)F (stereo partly drawn)
B = CC(C)[C@H](NC(=O)c1ccc2c(c1)no[n+]2[O-])C(=O)N1CCC[C@H]1C(=O)NC(Cc1ccccc1)C(=O)C(F)(F)F (stereo partly drawn)
C = Cc1noc(C)c1C(=O)N[C@H](C(=O)N1CCC[C@H]1C(=O)NC(Cc1ccc(F)cc1)C(=O)C(F)(F)F)C(C)C (stereo partly drawn)
D = CC(C)[C@H](NC(=O)c1ccccn1)C(=O)N1CCC[C@H]1C(=O)NC(Cc1csc2ccccc12)C(=O)C(F)(F)F (stereo partly drawn)
Sort the compounds on IC50; start with the lowest figure. Provide the ranking by listing each label in its place in the requested order.
A, B, C, D
(A: 27 nM, B: 42 nM, C: 65 nM, D: 94 nM)
